I'd be grateful if you could share measured Log IC50 for these entries.
- target_entity: Glycogen synthase kinase-3 (Homo sapiens, UniProt P49840+P49841)
- Sequence (P49840 whole entry, looked up): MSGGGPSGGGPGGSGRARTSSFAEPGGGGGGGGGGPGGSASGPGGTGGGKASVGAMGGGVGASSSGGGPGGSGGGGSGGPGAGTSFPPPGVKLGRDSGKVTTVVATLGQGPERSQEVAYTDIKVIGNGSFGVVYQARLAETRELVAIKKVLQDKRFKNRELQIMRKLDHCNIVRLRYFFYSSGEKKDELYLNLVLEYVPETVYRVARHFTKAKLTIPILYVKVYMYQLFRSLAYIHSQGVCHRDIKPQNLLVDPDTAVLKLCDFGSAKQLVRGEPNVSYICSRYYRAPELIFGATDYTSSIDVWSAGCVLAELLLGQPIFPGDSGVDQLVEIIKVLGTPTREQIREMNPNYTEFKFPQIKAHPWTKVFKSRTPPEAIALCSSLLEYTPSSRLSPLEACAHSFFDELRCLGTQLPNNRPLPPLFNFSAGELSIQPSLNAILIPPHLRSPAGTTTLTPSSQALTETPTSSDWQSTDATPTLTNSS
- Sequence (P49841 whole entry, looked up): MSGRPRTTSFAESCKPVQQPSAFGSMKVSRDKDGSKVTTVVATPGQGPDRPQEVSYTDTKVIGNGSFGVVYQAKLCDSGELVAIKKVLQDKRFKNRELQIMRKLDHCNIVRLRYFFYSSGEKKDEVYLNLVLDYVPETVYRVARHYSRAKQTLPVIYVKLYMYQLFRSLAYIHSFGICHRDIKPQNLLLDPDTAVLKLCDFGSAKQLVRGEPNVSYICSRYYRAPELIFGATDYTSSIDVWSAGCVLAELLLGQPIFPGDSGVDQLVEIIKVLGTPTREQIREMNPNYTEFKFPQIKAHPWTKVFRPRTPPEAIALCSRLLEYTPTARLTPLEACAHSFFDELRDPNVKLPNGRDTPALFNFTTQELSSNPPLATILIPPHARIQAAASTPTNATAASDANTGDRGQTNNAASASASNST
- assay_details: Inhibition of glycogen synthase kinase-3 (GSK3-beta)
- Type: protein assay
Field format: numeric only.

Query: Recorded Log IC50 for CS(=O)(=O)c1ccc(/C=N/Nc2ncnc3c2cnn3-c2cccc3[nH]cnc23)cc1 , please?
Reply: -8.3

Query: Next compound: COc1cccc(-n2ncc3c(N/N=C/c4ccc(S(C)(=O)=O)cc4)ncnc32)c1
Reply: -8.6

Query: Next: Fc1ccc(/C=N/Nc2ncnc3c2cnn3-c2cccc3[nH]cnc23)cc1
Reply: -8.2

Query: One more compound: C(=N\Nc1ncnc2c1cnn2-c1cccc2[nH]cnc12)/c1ccncc1
Reply: -8.4

Query: And what about the compound Fc1ccc(/C=N/Nc2ncnc3c2cnn3-c2ccccc2)cc1 ?
Reply: -6.2

Query: Please answer likewise for COc1cccc(-n2ncc3c(N/N=C/c4ccc(C(=O)NCCN(C)C)cc4)ncnc32)c1
Reply: -7.8

Query: Another compound: COc1cccc(-n2ncc3c(N/N=C/c4ccc(F)cc4)ncnc32)c1 [GW817396X]
Reply: -8.1

* * *

- target_entity: Glycogen synthase kinase-3 (Homo sapiens, UniProt P49840+P49841)
- assay_details: Inhibition of glycogen synthase kinase-3 (GSK3-beta)
- Format: protein assay
assay_metric: Log IC50
Write the value as a bare number.

Query: # Log IC50 lookup, item C(=N\Nc1ncnc2c1cnn2-c1ccccc1)/c1ccncc1
Reply: -7

Query: Entry to check: COc1cccc(-n2ncc3c(N/N=C/c4ccc(C(=O)O)cc4)ncnc32)c1
Reply: -7.5

Query: Then what about the molecule CN(C)CCNC(=O)c1ccc(/C=N/Nc2ncnc3c2cnn3-c2ccccc2)cc1 ?
Reply: -7.7

Query: Similarly, CN(C)CCNC(=O)c1ccc(/C=N/Nc2ncnc3c2cnn3-c2cccc3[nH]cnc23)cc1 ?
Reply: -8.8

Query: Please do the same for O=C(O)c1ccc(/C=N/Nc2ncnc3c2cnn3-c2cccc3[nH]cnc23)cc1 as well.
Reply: -8.3

* * *

- target_entity: Glycogen synthase kinase-3 (Homo sapiens, UniProt P49840+P49841)
- assay_details: Maximal glycogen synthesis in rat L6 skeletal muscle cells in response to 1 uM insulin
- Format: functional, cell-based
assay_metric: Max (%)
Write the value in % as a bare number.

Query: What measured Max goes with CN(C)CCNC(=O)c1ccc(/C=N/Nc2ncnc3c2cnn3-c2cccc3[nH]cnc23)cc1 ?
Reply: 76

Query: Try the compound COc1cccc(-n2ncc3c(N/N=C/c4ccncc4)ncnc32)c1 [GW784752X]
Reply: 37

Query: Note, next up: O=C(O)c1ccc(/C=N/Nc2ncnc3c2cnn3-c2cccc3[nH]cnc23)cc1
Reply: 42

Query: Proceed to COc1cccc(-n2ncc3c(N/N=C/c4ccc(C(=O)NCCN(C)C)cc4)ncnc32)c1
Reply: 26

Query: Next entry: C(=N\Nc1ncnc2c1cnn2-c1ccccc1)/c1ccncc1
Reply: 48

Query: Another compound: COc1cccc(-n2ncc3c(N/N=C/c4ccc(S(C)(=O)=O)cc4)ncnc32)c1
Reply: 19

Query: Repeat with C(=N\Nc1ncnc2c1cnn2-c1cccc2[nH]cnc12)/c1ccncc1
Reply: 45

Query: Would you kindly repeat that for COc1cccc(-n2ncc3c(N/N=C/c4ccc(C(=O)O)cc4)ncnc32)c1 ?
Reply: 46

Query: What do you get for CS(=O)(=O)c1ccc(/C=N/Nc2ncnc3c2cnn3-c2cccc3[nH]cnc23)cc1 ?
Reply: 54

Query: Same thing, different compound: Fc1ccc(/C=N/Nc2ncnc3c2cnn3-c2cccc3[nH]cnc23)cc1
Reply: 57
